- ASSAY TARGET: Histamine H1 receptor (Rattus norvegicus)
- Construct: Histamine H1 Receptors in Rat Brain Membranes; from tissue; host or cells: rat brain membranes
- Sequence (P31390 whole entry): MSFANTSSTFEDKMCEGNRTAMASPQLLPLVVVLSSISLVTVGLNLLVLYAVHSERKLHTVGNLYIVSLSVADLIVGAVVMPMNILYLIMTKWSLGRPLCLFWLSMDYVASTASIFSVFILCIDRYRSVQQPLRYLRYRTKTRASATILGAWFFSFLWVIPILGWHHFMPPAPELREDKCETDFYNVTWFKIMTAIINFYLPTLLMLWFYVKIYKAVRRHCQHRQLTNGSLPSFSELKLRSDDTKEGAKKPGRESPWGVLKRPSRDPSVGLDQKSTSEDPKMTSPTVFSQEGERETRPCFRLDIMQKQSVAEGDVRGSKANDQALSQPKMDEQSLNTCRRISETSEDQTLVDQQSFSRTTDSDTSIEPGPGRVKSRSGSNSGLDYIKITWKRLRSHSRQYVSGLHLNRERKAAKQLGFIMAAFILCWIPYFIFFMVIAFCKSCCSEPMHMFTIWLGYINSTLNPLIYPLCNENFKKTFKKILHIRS
- ASSAY: Affinity for histamine H1 receptors in rat brain membranes
- Format: binding
- TEST SETTINGS: rat brain membranes; read-out: Receptor Ki, Histamine H1
- Text: for Dopamine D2, Muscarinic, and Histamine H1 Receptors in Rat Brain Membranes *Tran V. T., Lebovitz, R., Toll, L., and Snyder, S. H.: [^3 H]Doxepin interactions with histamine H1 -receptors in guinea pig and rat brai
Under this convention, 1 denotes Ki strictly below 20 nM and -1 denotes Ki at or above 20 nM.

Worked set:
-- ask Given CSC(=NC#N)NCCCN1CCC(=C(c2ccccc2)c2ccccc2)CC1 [Compound 21] , is recorded Ki strictly lower than 20 nM?
-- reply 1

-- ask Given CC1(C)CC(=O)C=C(NCCN2CCC(=C(c3ccccc3)c3ccccc3)CC2)C1 [Compound 9] , is recorded Ki strictly lower than 20 nM?
-- reply -1

-- ask Given OC1CCN(CCCN2CCC(=C(c3ccccc3)c3ccccc3)CC2)CC1 [Compound 12, hemihydrate] , is recorded Ki strictly lower than 20 nM?
-- reply 1

-- ask Given N#CN=C(NCCCN1CCC(=C(c2ccccc2)c2ccccc2)CC1)N1CCCCC1 [Compound 23] , is recorded Ki strictly lower than 20 nM?
-- reply 1

-- ask Given c1ccc(C(=C2CCN(CCN3CCCCC3)CC2)c2ccccc2)cc1 [Compound 3] , is recorded Ki strictly lower than 20 nM?
-- reply 1

Next:
-- ask Given `c1ccc(C(=C2CCN(CCCN3CCCc4ccccc43)CC2)c2ccccc2)cc1` , is recorded Ki strictly lower than 20 nM?
-- reply -1

-- ask Given Fc1ccc(C(=C2CCN(CCCN3CCCCC3)CC2)c2ccc(F)cc2)cc1 [Compound 14] , is recorded Ki strictly lower than 20 nM?
-- reply 1
